Values of log10(IC50) for 72 kDa type IV collagenase (Homo sapiens), collected from a number of published sources:
Base-10 log of IC50, unit µM.

In [3]: df
Out[3]:
                                   molecule                               test_system      readout  recorded_number
0  O=C(CC(CCn1nnc2ccccc2c1=O)C(=O)O)c1cc2cc(OCCCC(F)(F)F)ccc2o1 (single isomer, unassigned; enantiomer 2)  72 kDa type IV collagenase (Homo sapiens)  log10(IC50)             0.11
1  O=C(O)[C@@H](Cc1ccccc1)NS(=O)(=O)c1ccc(-c2noc(-c3cccs3)n2)cc1  72 kDa type IV collagenase (Homo sapiens)  log10(IC50)            -1.51
2  Cc1cc(COc2ccc(S(=O)(=O)CC(C3CCN(C(=O)OC(C)(C)C)CC3)N(O)C=O)cc2)c2ccccc2n1 (stereo not shown)  72 kDa type IV collagenase (Homo sapiens)  log10(IC50)             0.18
3  O=C(NO)[C@@H](O)CS(=O)(=O)c1ccc(Oc2ccccc2)cc1  72 kDa type IV collagenase (Homo sapiens)  log10(IC50)            -3.40
4  CCC(CC)CN1CCC(=CC(CS(=O)(=O)c2ccc(OCc3cc(C)nc4ccccc34)cc2)N(O)C=O)CC1 (stereo not shown)  72 kDa type IV collagenase (Homo sapiens)  log10(IC50)             0.81
5  CCCc1ccc(-c2nc(-c3ccc(S(=O)(=O)N[C@H](Cc4ccccc4)C(=O)O)s3)no2)cc1  72 kDa type IV collagenase (Homo sapiens)  log10(IC50)            -1.44
6  O=C(O)[C@H]1[C@H](Cn2nnc3ccc(C(F)(F)F)cc3c2=O)CC[C@@H]1C(=O)c1ccc(SCc2ccc(Cl)c(Cl)c2)cc1 (racemic)  72 kDa type IV collagenase (Homo sapiens)  log10(IC50)             0.60
7  CCc1ccc(-c2nnn(-c3ccc(S(=O)(=O)N[C@@H](Cc4ccccc4)C(=O)O)cc3)n2)cc1  72 kDa type IV collagenase (Homo sapiens)  log10(IC50)            -1.59
8  CC(C)[C@@H](NS(=O)(=O)c1ccc(-n2nnc(-c3ccc(N(C)C)cc3)n2)cc1)C(=O)O  72 kDa type IV collagenase (Homo sapiens)  log10(IC50)            -2.77
9  O=C(O)CNS(=O)(=O)c1ccc(-c2noc(-c3ccc(Cl)cc3)n2)cc1  72 kDa type IV collagenase (Homo sapiens)  log10(IC50)            -1.07

Batch: log10(IC50) for all items listed.
1. CC1c2c([N+]#N)cc(C(C)(C)C)c(O)c2C(=O)C2=C(O)C3(O)C(=O)C(C(N)=O)=C(O)C(N(C)C)C3C(O)C21 (stereo not shown)
2. Cc1ccc2nc(C)cc(COc3ccc(S(=O)(=O)CC(C=C4CCC(=NO)CC4)N(O)C=O)cc3)c2c1 (stereo not shown)

1: 3.39; 2: 1.70

For every item in the list below, what is its measured log10(IC50)?
1. Cc1cccc(C(CS(=O)(=O)c2ccc(OCc3cc(C)nc4ccccc34)cc2)N(O)C=O)c1 (stereo not shown)
2. Cc1ccc(C(CS(=O)(=O)c2ccc(OCc3cc(C)nc4ccc(F)cc34)cc2)N(O)C=O)cn1 (stereo not shown)
3. CNC(CS(=O)(=O)c1ccc(NC(=O)c2ccccc2)cc1)C(=O)NO (stereo not shown)
4. O=C(O)[C@H]1[C@H](Cn2nnc3ccc(C(F)(F)F)cc3c2=O)CC[C@@H]1C(=O)c1ccc(OCCCc2ccccc2)cc1 (racemic)
5. O=C(O)[C@H]1[C@H](Cn2nnc3ccccc3c2=O)CC[C@@H]1C(=O)c1ccc(OCc2ccc(Cl)c(Cl)c2)cc1 (racemic)

[1.60, 1.04, -3.40, 0.66, -0.72]

Parameter requested: log10(IC50). Apply to each item below.
1. COCc1cc(COc2ccc(S(=O)(=O)CC(CC3CCC(=NO)CC3)N(O)C=O)cc2)cc(C)n1 (stereo not shown)
2. Cc1cc(COc2ccc(S(=O)(=O)CC(c3ccccc3C)N(O)C=O)cc2)c2cccc(F)c2n1 (stereo not shown)

1: 0.95; 2: 0.28
